Tested on: YSK1
Construct: gene STK25
RUN CONDITIONS: concentration: 1 μM, replicates: in singlicate; n = 1;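 note: KINOMEscan kinase panel screen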
MEASURE: %Inh (%)
Could you give me the number in %? Just the number is fine.

-- ask Provide one value: measured %Inh of CSc1ccc(-c2nc3n(c2-c2ccncc2)CCC3)cc1 [SKF-105561]
-- reply 0

-- ask Provide one value: measured %Inh of COc1cccc(NC(=O)Nc2ccc(C)c(-c3ccc(C(=O)Nc4ccncc4)cc3)c2)c1 [GSK1398474]
-- reply 4

-- ask Provide one value: measured %Inh of Cl.Cl.Cl.N#Cc1ccc(CCNc2nccc(-c3cccc(CN4CCNCC4)c3)n2)cc1 [GSK2137462]
-- reply 0

---
-- ask Provide one value: measured %Inh of Cc1ccc(NC(=O)Nc2ccc(Cl)cc2)cc1-c1ccc(C(=O)Nc2ccncc2)cc1 [GSK1398472]
-- reply 15

-- ask Provide one value: measured %Inh of `CC(=O)c1c(C)c2cnc(Nc3ccn(C)n3)nc2n(C2CCCC2)c1=O`
-- reply 0

-- ask Provide one value: measured %Inh of O=C(Nc1n[nH]c2cc(-c3ccsc3)ccc12)C1CC1 [SB-732932]
-- reply 5

====

System: PIK3CA
RUN CONDITIONS: concentration: 1 μM, replicates: in singlicate; n = 1
%Inh overview

Some solved entries appear below for comparison.
-- ask Print PIK3CA %Inh for `Cc1ccc(NC(=O)c2ccc(Cl)cc2)cc1-c1ccc(C(=O)Nc2ccncc2)cc1` .
-- reply 0%

-- ask Print PIK3CA %Inh for `O=C(Nc1n[nH]c2cc(-c3ccsc3)ccc12)C1CC1` .
-- reply 3%

-- ask Print PIK3CA %Inh for `CNc1nc(-c2ccc3c(N)n[nH]c3c2)cc(N2C[C@@H](C(=O)Nc3ccccc3)CC[C@H]2C)n1` .
-- reply 0%

Note: attention shifts to another entry.
-- ask Print PIK3CA %Inh for `O=C(Nc1n[nH]c2nc(-c3cccs3)c(Br)cc12)C1CC1` .
-- reply 0%

====

System: CSF1R-autoinhibited
RUN CONDITIONS: concentration: 1 μM, replicates: in singlicate; n = 1
MEASURE: %Inh (%)
Could you give me the number in %? Just the number is fine.

Some solved entries appear below for comparison.
-- ask Provide one value: measured %Inh of `Cc1ccc(NC(=O)Nc2ccccc2)cc1-c1ccc(C(=O)Nc2ccncc2)cc1`
-- reply 0

-- ask Provide one value: measured %Inh of `Cl.Cl.Cl.N#Cc1ccc(CCNc2nccc(-c3cccc(CN4CCNCC4)c3)n2)cc1`
-- reply 0

-- ask Provide one value: measured %Inh of O=C(Nc1n[nH]c2nc(-c3ccco3)c(Br)cc12)C1CCN(Cc2ccccc2)C1.O=C(O)[C@H](O)[C@@H](O)C(=O)O (centres unmarked)
-- reply 0

-- ask Provide one value: measured %Inh of `CC[C@@H]1CO[C@H](C(=O)Nc2ccccc2)CN1c1cc(-c2ccc3c(N)n[nH]c3c2)nc(NC)n1`
-- reply 0

---
-- ask Provide one value: measured %Inh of `Cc1ccccc1-c1cc(-c2c[nH]nc2-c2ccccn2)ccn1`
-- reply 10

-- ask Provide one value: measured %Inh of COc1ccc(Nc2nccc(N3CCC(NC(=O)c4cc5ccccc5s4)C3)n2)cc1 (centres unmarked)
-- reply 0

-- ask Provide one value: measured %Inh of `CC(=O)c1c(C)c2cnc(Nc3ccn(C)n3)nc2n(C2CCCC2)c1=O`
-- reply 12

The origin of these recorded values is paper PMC5540273.
